- Read-out: Tumor necrosis factor receptor 1 (TNFRSF1A), TNFRSF1A (gene 7132)
- procedure_summary: LTEA_HepaRG_TNFRSF1A: Life Technologies and Expression Analysis (LTEA) Assay for Tumor necrosis factor receptor 1 (TNFRSF1A) using HepaRG (AID 2283535)
- stated_conditions: mRNA level, 48 h; actives raise or lower the signal
The source made the active and inactive calls. Rule for the calls: active = hit-call score of the fitted dose curve at least 0.9, where 1 is the maximum; inactive = score below 0.9.
Classes to choose from: t (active), f (inactive)

Would you please look over these solved cases?
- S=C1NCCN1: f
- CNC(=O)Oc1cccc2c1OC(C)(C)O2: f
- Nc1c(Cl)cc([N+](=O)[O-])cc1Cl: t
- Nc1nc(N)nc(NC2CC2)n1: f

Q: Called result for O=c1ccc(=O)[nH][nH]1
Ans: f

###

- procedure_summary: CCTE_Simmons_MITO_viability: CellTiter-Glo Viability Assessment for CCTE's HepG2 Seahorse XF Respirometric Screening Assay [post-hoc], Simmons Lab (AID 2284007)
Results filed as inconclusive are left out. Calls of active or inactive are those of the source. The calls were made as follows: active = hit-call score of the fitted dose curve at least 0.9, where 1 is the maximum; inconclusive = response in the unintended direction; inactive = score below 0.9.
Classes to choose from: active, inactive

Q: Called result for CC(C1CC1)C(O)(Cn1cncn1)c1ccc(Cl)cc1 (centres undefined)
Ans: inactive

Q: Called result for N#CSCSC#N
Ans: active

Q: Called result for FC(F)C(F)(F)OCC(Cn1cncn1)c1ccc(Cl)cc1Cl (centres undefined)
Ans: active

Q: Called result for O=[N+]([O-])c1cc(C(F)(F)F)c(Cl)c([N+](=O)[O-])c1Nc1ncc(C(F)(F)F)cc1Cl
Ans: inactive

Q: Called result for CON=C(C(=O)OC)c1ccccc1CON=C(C)c1cccc(C(F)(F)F)c1
Ans: inactive

Q: Called result for CCC(=O)Nc1ccc(Cl)c(Cl)c1
Ans: inactive

Q: Called result for C#CCC1=C(C)C(OC(=O)C2C(C=C(C)C)C2(C)C)CC1=O (centres undefined)
Ans: inactive

Q: Called result for CC1(C(=O)Nc2ccc(O)c(Cl)c2Cl)CCCCC1
Ans: inactive

Q: Called result for COP(=O)(OC)OC(Br)C(Cl)(Cl)Br (centres undefined)
Ans: active

###

- Read-out: Cellular tumor antigen p53 (Homo sapiens) (UniProt P04637)
- Sequence (P04637 whole entry, looked up): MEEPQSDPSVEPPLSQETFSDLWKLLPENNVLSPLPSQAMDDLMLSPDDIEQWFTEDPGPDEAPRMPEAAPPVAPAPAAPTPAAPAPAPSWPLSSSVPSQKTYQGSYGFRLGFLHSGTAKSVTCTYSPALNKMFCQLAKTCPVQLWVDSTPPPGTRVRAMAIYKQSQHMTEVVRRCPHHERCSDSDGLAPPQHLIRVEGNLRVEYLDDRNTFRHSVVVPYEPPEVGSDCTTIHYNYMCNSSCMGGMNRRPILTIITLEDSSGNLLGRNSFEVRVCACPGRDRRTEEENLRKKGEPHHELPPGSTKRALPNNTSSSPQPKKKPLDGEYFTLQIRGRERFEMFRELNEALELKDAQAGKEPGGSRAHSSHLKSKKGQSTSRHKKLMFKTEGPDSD
- procedure_summary: LTEA_HepaRG_TP53: Life Technologies and Expression Analysis (LTEA) Assay for Tumor Protein P53 (TP53) using HepaRG (AID 2283537)
- stated_conditions: mRNA level, 48 h; actives raise or lower the signal
Activity calls are given as the source filed them. The calls were made as follows: active = hit-call score of the fitted dose curve at least 0.9, where 1 is the maximum; inactive = score below 0.9.
observed_property: outcome

• CC(C)[C@H](C(=O)O[C@H](C#N)c1cccc(Oc2ccccc2)c1)c1ccc(Cl)cc1 = inactive
• CSc1nnc(C(C)(C)C)c(=O)n1N = inactive
• CCCSP(=O)(OCC)Oc1ccc(Br)cc1Cl (stereo not drawn) = inactive

###

- Read-out: ABC Transporter (ABCB1), ABCB1 (gene 5243)
- procedure_summary: CLD_ABCB1_6hr: CellzDirect (CLD) Gene Expression Assay for ABC Transporter (ABCB1) at 6 hours (AID 2283659);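 note: hits raise ABCB1 transcript above the DMSO vehicle baseline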
Inconclusive results are not listed. Activity calls are given as the source filed them. The calls were made as follows: active = hit-call score of the fitted dose curve at least 0.9, where 1 is the maximum; inconclusive = response in the unintended direction; inactive = score below 0.9.
observed_property: outcome

- CCCSP(=O)(OCC)Oc1ccc(Br)cc1Cl (configuration not stated): inactive
- CCCSP(=O)(OCC)SCCC: inactive
- COP(=O)(OC)OC(Br)C(Cl)(Cl)Br (configuration not stated): inactive
- CNC(=O)Oc1cccc2c1OC(C)(C)O2: inactive
- CCc1cccc(C)c1N(C(=O)CCl)C(C)COC (configuration not stated): inactive
- CCOP(=S)(Oc1cnc(C(C)(C)C)nc1)OC(C)C (configuration not stated): inactive
- CN(C)[C@@H]1C(=O)C(C(N)=O)=C(O)[C@@]2(O)C(=O)C3=C(O)c4c(O)cccc4[C@@](C)(O)[C@H]3[C@H](O)[C@@H]12: inactive
- CCOP(=S)(OCC)OC(Cl)C(Cl)(Cl)Cl (configuration not stated): inactive

Record summary for CC1(C(=O)Nc2ccc(O)c(Cl)c2Cl)CCCCC1 : reported outcome = inactive

Record summary for O=C(O)c1cc(Oc2ccc(C(F)(F)F)cc2Cl)ccc1[N+](=O)[O-] : reported outcome = inactive

Record summary for N#CSCSC#N : reported outcome = inactive

Record summary for CCCCN(CC)c1c([N+](=O)[O-])cc(C(F)(F)F)cc1[N+](=O)[O-] : reported outcome = inactive

Record summary for C[N+]1(C)CCCCC1 : reported outcome = inactive

Record summary for COc1cc(OC)nc(Sc2cccc(Cl)c2C(=O)O)n1 : reported outcome = inactive

Record summary for CCOP(=S)(OCC)SCCSCC : reported outcome = inactive

Record summary for CC(C1CC1)C(O)(Cn1cncn1)c1ccc(Cl)cc1 (configuration not stated) : reported outcome = inactive

Record summary for CNC(=O)ON=C(SC)C(=O)N(C)C : reported outcome = inactive

###

- Read-out: Tissue Factor, F3 (gene 2152)
- procedure_summary: BSK_LPS_TissueFactor: BioMAP Diversity Plus: LPS Assay for Tissue Factor Biomarker Activity (AID 2283084)
- stated_conditions: primary human HUVEC with PBMC; actives raise or lower the signal
Activity calls are given as the source filed them. How the source made its calls: active means hit-call score of the fitted dose curve at least 0.9, where 1 is the maximum; inactive means score below 0.9.
Classes to choose from: active, inactive

Would you please look over these solved cases?
• CC(C)N(C(=O)SCC(Cl)=C(Cl)Cl)C(C)C = active
• S=C1NCCN1 = inactive
• CCOC(=O)CC(SP(=O)(OC)OC)C(=O)OCC (stereo not given) = inactive
• CCOP(=O)(OCC)Oc1cc(C)nc(C(C)C)n1 = inactive
• C#CCC1=C(C)C(OC(=O)C2C(C=C(C)C)C2(C)C)CC1=O (stereo not given) = inactive

Now examine the next entry.
Q: Called result for CNC(=O)ON=C(SC)C(=O)N(C)C
Ans: inactive

###

- Read-out: Monocyte Chemoattractant Protein-1 (MCP1), CCL2 (gene 6347)
- procedure_summary: BSK_CASM3C_MCP1: BioMAP Diversity Plus: CASM3C Assay for Monocyte Chemoattractant Protein-1 (MCP1) Biomarker Activity (AID 2283046);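 note: MCP-1 level quantified by ELISA 24 h after dosing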
- stated_conditions: primary human coronary artery smooth muscle cells; actives raise or lower the signal
Active and inactive are the calls of the source. How the source made its calls: active means hit-call score of the fitted dose curve at least 0.9, where 1 is the maximum; inactive means score below 0.9.
Classes to choose from: true (1) = active, false (0) = inactive

Would you please look over these solved cases?
• CCCCN(CC)c1c([N+](=O)[O-])cc(C(F)(F)F)cc1[N+](=O)[O-] = false (0)
• CC(COc1ccc(Oc2ccccc2)cc1)Oc1ccccn1 (centres undefined) = false (0)
• O=c1ccc(=O)[nH][nH]1 = false (0)
• CCC(=NOC/C=C/Cl)C1=C(O)CC(C2CCOCC2)CC1=O (centres undefined) = false (0)
• CN(C)[C@@H]1C(=O)C(C(N)=O)=C(O)[C@@]2(O)C(=O)C3=C(O)c4c(O)cccc4[C@@](C)(O)[C@H]3[C@H](O)[C@@H]12 = false (0)
• COP(=O)(OC)C(O)C(Cl)(Cl)Cl (centres undefined) = false (0)

Q: Called result for CCOP(=O)(SC(C)CC)N1CCSC1=O (centres undefined)
Ans: false (0)

Q: Called result for CCCCOC(=O)c1ccccc1C(=O)O
Ans: false (0)

###

- procedure_summary: CCTE_Padilla_ZF_144hpf_TERATOSCORE: (Legacy) CCTE's 144 Hour Post-fertilization zebrafish Assay Teratoscore, Padilla Lab (AID 2283679)
Calls of active or inactive are those of the source. Rule for the calls: active = hit-call score of the fitted dose curve at least 0.9, where 1 is the maximum; inactive = score below 0.9.
Classes to choose from: class 1 for active, class 0 for inactive

Would you please look over these solved cases?
* CCC(=NOC/C=C/Cl)C1=C(O)CC(C2CCOCC2)CC1=O (centres undefined) | class 0
* CCNc1nc(Cl)nc(NC(C)(C)C#N)n1 | class 0
* CCCCOC(=O)c1ccccc1C(=O)O | class 0

Now examine the next entry.
Q: Called result for CC[C@H](C)[C@H]1O[C@]2(C=C[C@@H]1C)C[C@@H]1C[C@@H](C/C=C(\C)[C@@H](O[C@H]3C[C@H](OC)[C@@H](O[C@H]4C[C@H](OC)[C@@H](NC)[C@H](C)O4)[C@H](C)O3)[C@@H](C)/C=C/C=C3\CO[C@@H]4[C@H](O)C(C)=C[C@@H](C(=O)O1)[C@]34O)O2
Ans: class 1

###

- procedure_summary: CCTE_Shafer_MEA_acute_burst_number: CCTE's Neural Acute Assay for Single-Electrode Bursts, Shafer Lab (AID 2284013)
- Protocol: CCTE_Shafer_MEA_acute assay is conducted using Axion Biosystems 48 well microelectrode array (MEA) plates and Maestro recording system. Each well of the MEA plate contains a grid of 16 microelectrodes embedded in the culture surface. Electrically active cells, such as neurons, can be cultured over the electrodes, and electrical activity in these cells can be recorded extracellularly. […]
The source made the active and inactive calls. How the source made its calls: active means hit-call score of the fitted dose curve at least 0.9, where 1 is the maximum; inactive means score below 0.9.
Classes to choose from: class 1 (active), class 0 (inactive)

Would you please look over these solved cases?
- CN(C)[C@@H]1C(=O)C(C(N)=O)=C(O)[C@@]2(O)C(=O)C3=C(O)c4c(O)cccc4[C@@](C)(O)[C@H]3[C@H](O)[C@@H]12: class 0
- C[Si](Cn1cncn1)(c1ccc(F)cc1)c1ccc(F)cc1: class 1
- Nc1c(Cl)cc([N+](=O)[O-])cc1Cl: class 0
- O=[N+]([O-])c1cc(C(F)(F)F)c(Cl)c([N+](=O)[O-])c1Nc1ncc(C(F)(F)F)cc1Cl: class 1

Now examine the next entry.
Q: Called result for CNC(=O)ON=C(SC)C(=O)N(C)C
Ans: class 0
